Cited source for all entries: patent US20110301142A1

# TARGET_DESC: human LPA1 (Homo sapiens, UniProt Q92633)
# Construct: the full-length cDNA for human LPA1 was obtained by PCR of the reverse transcription reaction; expressed in transfected cells
# Sequence (Q92633 whole entry): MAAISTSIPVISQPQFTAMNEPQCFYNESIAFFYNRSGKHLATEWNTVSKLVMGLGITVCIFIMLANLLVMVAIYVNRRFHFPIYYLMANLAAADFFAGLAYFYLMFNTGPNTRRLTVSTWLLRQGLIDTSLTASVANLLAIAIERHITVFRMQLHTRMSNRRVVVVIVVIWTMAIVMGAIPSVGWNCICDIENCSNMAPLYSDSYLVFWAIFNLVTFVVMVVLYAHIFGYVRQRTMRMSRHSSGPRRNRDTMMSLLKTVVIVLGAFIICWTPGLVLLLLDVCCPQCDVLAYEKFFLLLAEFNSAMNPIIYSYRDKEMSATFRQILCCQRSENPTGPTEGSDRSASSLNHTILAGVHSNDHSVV
# ASSAY_DETAILS: LPA1 calcium flux assay (HLPA1 Ca Flux)
# Format: cell-based
# EXPERIMENTAL_CONTEXT: Human LPA1 expressing CHO cells, stimulated with 10 nM LPA
IC50 by entry:

The examples below pair each entry with its known result.
• Cc1noc(-c2ccc(-c3nnn(CC(=O)O)n3)cc2)c1NC(=O)O[C@H](C)c1ccccc1F = 1 to 50 µM
• Cc1noc(-c2ccc(-c3ccc(CC(=O)O)cc3)cc2)c1NC(=O)OC(C)c1c(F)cccc1F (stereo not shown) = < 0.3 µM
• Cc1noc(-c2ccc(CN3CC(C(=O)O)C3)cc2)c1NC(=O)O[C@H](C)c1ccccc1 = 1 to 50 µM
• COc1ccc(CC(=O)O)cc1-c1ccc(-c2onc(C)c2NC(=O)OC(C)c2ccccc2Cl)cc1 (stereo not shown) = 0.3 to 1 µM
• Cc1noc(-c2ccc(Oc3cccc(CC(=O)O)c3)cc2)c1NC(=O)O[C@H](C)c1ccccc1Cl = < 0.3 µM
• Cc1noc(-c2ccc(-c3cccc(C(=O)O)c3)cc2)c1NC(=O)OC1CCc2ccccc21 (stereo not shown) = > 50 µM

IC50 measured on Cc1noc(-c2ccc(-c3cccc(C(=O)O)c3)cc2)c1NC(=O)O[C@H](C)c1ccccn1 = 1 to 50 µM

====

# TARGET_DESC: human LPA3 (Homo sapiens, UniProt Q9UBY5)
# Construct: The full-length cDNA fragment for human LPA3 was obtained by PCR from the vector; cDNA from the Missouri S&T cDNA Resource Center
# Sequence (Q9UBY5 whole entry, the tested form may be a part): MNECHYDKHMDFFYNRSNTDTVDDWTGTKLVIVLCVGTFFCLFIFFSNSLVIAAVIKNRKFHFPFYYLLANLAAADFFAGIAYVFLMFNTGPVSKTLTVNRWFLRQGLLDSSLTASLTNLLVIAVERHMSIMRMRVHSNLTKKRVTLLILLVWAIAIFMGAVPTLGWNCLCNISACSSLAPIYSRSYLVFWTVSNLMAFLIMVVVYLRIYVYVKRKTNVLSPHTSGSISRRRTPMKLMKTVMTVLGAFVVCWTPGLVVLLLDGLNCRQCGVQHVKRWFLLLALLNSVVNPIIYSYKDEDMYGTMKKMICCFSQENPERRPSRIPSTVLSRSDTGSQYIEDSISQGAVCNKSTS
# ASSAY_DETAILS: LPA3 calcium flux assay
# EXPERIMENTAL_CONTEXT: Human LPA3 expressing CHO cells, stimulated with 10 nM LPA; read-out: HLPA3 Ca Flux IC50
The compounds listed here are annotated with their IC50.

Sample records with IC50:
- COc1ccc(CC(=O)O)cc1Cc1ccc(-c2onc(C)c2NC(=O)OC(C)c2ccccc2Cl)cc1 (centres unmarked) [Compound 1-7]: 1 to 50 µM
- Cc1noc(-c2ccc(Oc3cccc(CC(=O)O)c3)cc2)c1NC(=O)O[C@H](C)c1ccccc1Cl [Compound 1-137]: 1 to 50 µM
- Cc1ccccc1[C@@H](C)OC(=O)Nc1c(C)noc1-c1ccc(-c2ccc(CC(=O)O)cc2)cc1 [Compound 1-124]: 1 to 50 µM
- Cc1noc(-c2ccc(Cc3ccc(C(=O)O)s3)cc2)c1NC(=O)OC(C)c1ccccc1Cl (centres unmarked) [Compound 1-15]: 1 to 50 µM
- Cc1noc(-c2ccc(Cn3cnc(C(=O)O)n3)cc2)c1NC(=O)OC(C)c1ccccc1Cl (centres unmarked) [Compound 1-1]: 1 to 50 µM

// sample Cc1noc(-c2ccc(-c3ccc(CC(=O)O)cc3)cc2)c1NC(=O)O[C@H](C)c1ccccc1Cl [Compound 1-88] , its IC50 was 1 to 50 µM

Briefly, IC50 measured for Cc1noc(-c2ccc(-c3ccc(CCC(=O)O)cc3)cc2)c1NC(=O)OC(C)c1ccccc1Cl (centres unmarked) [Compound 1-62] : 1 to 50 µM

Reported IC50 of COc1ccc(CC(=O)O)cc1-c1cccc(-c2onc(C)c2NC(=O)OC(C)c2ccccc2Cl)c1 (centres unmarked) [Compound 1-30] : 1 to 50 µM

// sample Cc1noc(-c2ccc(-c3ccc(C(C)C(=O)O)cc3)cc2)c1NC(=O)O[C@H](C)c1ccccc1F (some centres unmarked) [Compound 1-91] , its IC50 was 1 to 50 µM

For record Cc1noc(-c2ccc(-c3ccc(C(=O)O)cn3)cc2)c1NC(=O)OC(C)c1ccccc1Cl (centres unmarked) [Compound 1-54] the listed IC50 is 1 to 50 µM

Quick note, IC50 for Cc1noc(-c2ccc(-c3ccc(Cc4nn[nH]n4)cc3)cc2)c1NC(=O)O[C@H](C)c1ccccc1F [Compound 2-4] landed at 1 to 50 µM

Notebook: Cc1noc(-c2ccc(-c3ccc(CC#N)cc3)cc2)c1NC(=O)O[C@H](C)c1ccccc1Cl [Compound 2-2] , IC50 read as 1 to 50 µM

Field IC50 (entry Cc1noc(-c2ccc(-c3ccc(CC(=O)O)cc3)c(Cl)c2)c1NC(=O)O[C@H](C)c1ccccc1Cl [Compound 1-131] ) reads 1 to 50 µM

// recorded IC50 for COc1ccccc1C(C)OC(=O)Nc1c(C)noc1-c1ccc(-c2ccc(CC(=O)O)cc2)cc1 (centres unmarked) [Compound 1-28] : > 50 µM

====

# TARGET_DESC: human LPA3 (Homo sapiens, UniProt Q9UBY5)
# Construct: The full-length cDNA fragment for human LPA3 was obtained by PCR from the vector; expressed in transfected cells; cDNA from the Missouri S&T cDNA Resource Center
# ASSAY_DETAILS: LPA3 calcium flux assay
# Assay type: cell-based
# EXPERIMENTAL_CONTEXT: Human LPA3 expressing CHO cells, stimulated with 10 nM LPA; read-out: HLPA3 Ca Flux IC50
# Description: A vector containing the human LPA3 receptor cDNA was obtained from the Missouri S&T cDNA Resource Center (www.cdna.org). The full-length cDNA fragment for human LPA3 was obtained by PCR from the vector. The nucleotide sequence of the cloned human LPA3 was determined by sequencing and confirmed to be identical to the published human LPA3 sequence (NCBI accession number NM 012152). […]
VALUE_KIND: IC50

• Cc1noc(-c2ccc(-c3ccc(C(C)(C)C(=O)O)cc3)cc2)c1NC(=O)OC(C)c1ccccc1F (stereo not drawn) = 1 to 50 µM
• Cc1noc(-c2cccc(C3=CCC(C(=O)O)CC3)c2)c1NC(=O)OC(C)c1ccccc1Cl (stereo not drawn) = > 50 µM
• Cc1noc(-c2ccc(C3CCC(C(=O)O)CC3)cc2)c1NC(=O)OC(C)c1ccccc1Cl (stereo not drawn) = 1 to 50 µM
• Cc1noc(-c2cnc(-c3ccc(CC(=O)O)cc3)s2)c1NC(=O)O[C@H](C)c1ccccc1F = > 50 µM
• Cc1noc(-c2ccc(-c3cncc(CC(=O)O)c3)cc2)c1NC(=O)OC(C)c1ccccc1Cl (stereo not drawn) = 1 to 50 µM
• Cc1noc(-c2ccc(COc3ccccc3CC(=O)O)cc2)c1NC(=O)OC(C)c1ccccc1Cl (stereo not drawn) = 1 to 50 µM
• Cc1noc(-c2ccc(Oc3ccc(CC(=O)O)cc3)cc2)c1NC(=O)O[C@H](C)c1ccccc1Cl = 0.3 to 1 µM
• Cc1noc(-c2ccc(-c3ccccc3CC(=O)O)cc2)c1NC(=O)OC(C)c1ccccc1Cl (stereo not drawn) = 1 to 50 µM

Then this compound:
For record Cc1noc(-c2ccc(-c3ccc(CC(=O)O)cc3)cc2)c1NC(=O)OC(C)c1ccc(Cl)cc1Cl (stereo not drawn) the listed IC50 is 1 to 50 µM
